Every entry's value here was drawn from PubChem BioAssay (NCI).

# assayExplanation: NCI Yeast Anticancer Drug Screen. Data for the wt2 strain (AID 169);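 further: 0% = growth of vehicle-treated yeast cultures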
# testSettings: S. cerevisiae wt2 strain growth inhibition; at 11.0 µM; hits give high values
Compounds without any hit were thinned out: in the full panel of roughly 79,000, 15% have a hit.
// reported growth inhibition for each item listed
Answer with a number only, understood to be in %.

These solved cases illustrate the format of a correct answer.
O=c1[nH]c(-c2ccccc2)nc2c1sc1nc3ccccc3n12 = -6
CC[n+]1oc(C(=O)c2ccc(Cl)cc2)c(-c2ccccc2)c1-c1ccccc1.[Cl][Fe]([Cl])([Cl])[Cl] = -3
O=C(/C=C\c1cccc(C(F)(F)F)c1)c1ccccc1 = -2

Request: Query: growth inhibition; subject: O=[N+]([O-])c1cc[n+]([O-])cc1
Result: -3

Request: Query: growth inhibition; subject: CN(CCN(C)Cc1ccccc1)Cc1ccccc1
Result: 2

----------
# assayExplanation: NCI Yeast Anticancer Drug Screen. Data for the rad18 strain (AID 177)
# testSettings: S. cerevisiae rad18 mutant growth inhibition; at 33.0 µM; hits give high values
Compounds without any hit were thinned out: in the full panel of roughly 79,000, 15% have a hit.
quantityMeasured: growth inhibition (%)
Answer with a number only, understood to be in %.

NC1=NNC2(C(N)=N1)c1ccccc1-c1ccccc12 = 18
O=[N+]([O-])/C=C/c1cc(Cl)c(/C=C/[N+](=O)[O-])cc1Cl = 95
O=C(NCCCl)Sc1ccc(Cl)cc1 = 44

Request: Query: growth inhibition; subject: COC(=O)/C=C(/C(=O)OC)C(Cl)(Cl)Cl
Result: 98

Request: Query: growth inhibition; subject: Cc1cc(O)c(C(C)C)cc1C1(c2cc(C(C)C)c(O)cc2C)OC(=O)c2ccccc21
Result: 3

Request: Query: growth inhibition; subject: COc1oc(C(=O)NC2CCCCC2)c(-c2ccc(Cl)cc2)c1S(=O)(=O)c1ccccc1
Result: 85

Request: Query: growth inhibition; subject: Nc1nc(N)c2nc(CNc3ccc(C(=O)NC(CCC(=O)O)C(=O)O)cc3F)cnc2n1 (configuration not stated)
Result: 72

Request: Query: growth inhibition; subject: Cc1cc(NCCCCCCCCNc2cc(C)nc3cc(N)ccc23)c2ccc(N)cc2n1
Result: 97

Request: Query: growth inhibition; subject: CCCCC(CC)C(=O)[O][Sn]([CH2]CCC)([CH2]CCC)[O]C(=O)C(CC)CCCC (configuration not stated)
Result: 91

----------
# assayExplanation: NCI Yeast Anticancer Drug Screen. Data for the mec2-1 strain (AID 157)
# testSettings: S. cerevisiae mec2-1 strain, at 11.0 µM, hits give high values
Compounds without any hit were thinned out: in the full panel of roughly 79,000, 15% have a hit.
quantityMeasured: growth inhibition (%)
Answer with a number only, understood to be in %.

These solved cases illustrate the format of a correct answer.
CN(C)CCCCN1c2ccccc2Sc2ccc(N=[N+]=[N-])cc21 = 36
Cc1cc(-c2cc(C)c(O)c(C(C)(C)C)c2)cc(C(C)(C)C)c1O = -10
CCOC(=O)/C(=C\c1ccc(C#N)cc1)C(C)=O = 13
O=C(NNc1ccccc1)c1ccc(Cl)c(Cl)c1 = -5
CN(C)c1ccc2c(SCC(=O)OCC(=O)[C@@]3(O)CC[C@H]4[C@@H]5CCC6=CC(=O)C=C[C@]6(C)[C@H]5C(=O)C[C@@]43C)c3ccc(N(C)C)cc3nc2c1 = 55
Cc1nc2ccccc2nc1NNc1ccccc1 = 9

# evaluate next
Request: Query: growth inhibition; subject: c1ccc(Cc2cc(-c3ccccc3)n[nH]2)cc1
Result: -23
